Measured TGI, listed per entry for reference.
Tested on: HT29 colon
Assay: NCI tumour cell line growth inhibition, 48 h
Recorded Metric: TGI (µM)

> print(dat)
                            chemical.smiles  comparison.symbol  experimental.value
1  O=C1NC(=S)NC(=O)C1C(c1ccc(O)cc1)C1C(=O)NC(=S)NC1=O                  >                 100
2  COC1=C(OC)C(=O)C(Cc2c(C)nc3sccn23)=C(C)C1=O                  =                32.2
3             N#Cc1[nH]c(=O)n(-c2ccccc2)c1N                  >                  10
4  COc1cc2c3c(n(CCCN)c(=O)c2cc1OC)-c1ccc(C#N)cc1C3=O                  =                29.1
5               N#Cc1cc(-c2cc3ccccc3o2)oc1N                  =                11.3
6  C=C(C)CCN[Si](c1ccccc1)(c1ccccc1)C(C)(C)C                  =                30.2
